Reference source: paper PMC12864922

# studyTarget: TDP-43 (Homo sapiens, UniProt Q13148 1-414)
# Sequence (Q13148 whole entry): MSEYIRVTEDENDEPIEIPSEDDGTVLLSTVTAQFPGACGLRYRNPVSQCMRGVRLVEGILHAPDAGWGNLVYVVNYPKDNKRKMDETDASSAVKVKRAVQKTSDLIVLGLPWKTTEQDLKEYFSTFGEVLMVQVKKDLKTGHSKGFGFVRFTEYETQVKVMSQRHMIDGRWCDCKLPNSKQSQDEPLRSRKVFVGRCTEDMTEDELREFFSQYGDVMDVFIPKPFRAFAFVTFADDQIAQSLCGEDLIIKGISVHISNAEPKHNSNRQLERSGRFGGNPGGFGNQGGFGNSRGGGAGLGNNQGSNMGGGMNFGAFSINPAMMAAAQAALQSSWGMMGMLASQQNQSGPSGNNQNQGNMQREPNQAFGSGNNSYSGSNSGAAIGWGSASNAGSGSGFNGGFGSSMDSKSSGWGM
# protocol: RNA Bind-n-Seq with designed 260-mer pool; 25 mM Tris-HCl, 150 mM KCl, 3 mM MgCl2, BSA (printed 500 mg/mL), 20 units/mL SUPERase IN; pH not stated; 500 nM RNA pool, 1 h, 4 C; TDP-43 5, 50, 500 nM; high values mean tight binding
# protocolConditions: protein: recombinant; tags: SBP (GST cleaved off with PreScission; pGEX-GST-SBP)
In all, about 9,900 sequences were measured (“r (bound/input frequency ratio)”: median about 0.7, highest 2% from about 6.5 on). Many of the other results were omitted from the sample, so the highest values are more common in it than they were.

binder	binding signal
ENSMUSG00000029636.426|Wasf3 (ssRNA) RNA: GGGAGUUCUACAGUCCGACGAUCGCUUCGAUAUCCGCAUGCUAGUAAGUAGCUAGGUGGAUGGGUGGGUGGAUACAUGGAUGAGUGGAUGGGUGGAUUGGUGGGUGAGUGGAUAGGUGAAUGGAUGAUAGGUGGUGGAUGGUUGAGUGGGUGGAUUCAUGAUGGAUGGAUGGAUGGAUGGAUGGAUGGAUGGAUGGAUGAGUGGAUGGAUAAUAGGUUGAUGGGUGGAUAGGUAGAUGAGUGAAUAGAUAGAUAUAGAUCAGUGGGAGGAUUGGAAAGUAGGUGAAUGAAUGGAUGGCAGAUACUCUUGCGGUCGCACUAGUGUGGAAUUCUCGGGUGUCAAGG	3.58 R (bound/input frequency ratio)
ENSMUSG00000029636.422|Wasf3 (ssRNA) RNA: GGGAGUUCUACAGUCCGACGAUCGCUUCGAUAUCCGCAUGCUAUGAGUGGAUGGGUGGGUUAGGUGGGUAAGUAGCUAGGUGGAUGGGUGGGUGGAUACAUGGAUGAGUGGAUGGGUGGAUUGGUGGGUGAGUGGAUAGGUGAAUGGAUGAUAGGUGGUGGAUGGUUGAGUGGGUGGAUUCAUGAUGGAUGGAUGGAUGGAUGGAUGGAUGGAUGGAUGGAUGAGUGGAUGGAUAAUAGGUUGAUGGGUGGAUAGGUAGAUGAGUGAAUAGAUAGAUAUAGAUCAGUGGGAGGAUUGGAAAGUCUCUUGCGGUCGCACUAGUGUGGAAUUCUCGGGUGUCAAGG	11.2 R (bound/input frequency ratio)
ENSMUSG00000029636.433|Wasf3 (ssRNA) RNA: GGGAGUUCUACAGUCCGACGAUCGCUUCGAUAUCCGCAUGCUAGGAUGGGUGGAUUGGUGGGUGAGUGGAUAGGUGAAUGGAUGAUAGGUGGUGGAUGGUUGAGUGGGUGGAUUCAUGAUGGAUGGAUGGAUGGAUGGAUGGAUGGAUGGAUGGAUGAGUGGAUGGAUAAUAGGUUGAUGGGUGGAUAGGUAGAUGAGUGAAUAGAUAGAUAUAGAUCAGUGGGAGGAUUGGAAAGUAGGUGAAUGAAUGGAUGGCAGAUAGAUGGAUCAAUUACAGAUGGAUGGAUGCAUGGAAUAGAUAGGCUCUUGCGGUCGCACUAGUGUGGAAUUCUCGGGUGUCAAGG	4.32 R (bound/input frequency ratio)
ENSMUSG00000029636.431|Wasf3 (ssRNA) RNA: GGGAGUUCUACAGUCCGACGAUCGCUUCGAUAUCCGCAUGCUAACAUGGAUGAGUGGAUGGGUGGAUUGGUGGGUGAGUGGAUAGGUGAAUGGAUGAUAGGUGGUGGAUGGUUGAGUGGGUGGAUUCAUGAUGGAUGGAUGGAUGGAUGGAUGGAUGGAUGGAUGGAUGAGUGGAUGGAUAAUAGGUUGAUGGGUGGAUAGGUAGAUGAGUGAAUAGAUAGAUAUAGAUCAGUGGGAGGAUUGGAAAGUAGGUGAAUGAAUGGAUGGCAGAUAGAUGGAUCAAUUACAGAUGGAUGGAUGCAUCUCUUGCGGUCGCACUAGUGUGGAAUUCUCGGGUGUCAAGG	6.71 R (bound/input frequency ratio)
